- Tested on: SK-OV-3 ovarian
- METHOD SUMMARY: NCI tumour cell line growth inhibition, 48 h; in the data active = GI50 below about 0.43 µM; inactive = the rest
The reply should name one outcome from 1 for active, 0 for inactive

input: Outcome logged for C[Se]C(=O)CC1=C2C=C(F)C=CC2/C(=C\c2ccc(S(C)=O)cc2)C1C (centres undefined) in this assay:
output: 1

input: And C[C@@H]1CC[C@@]2(OC1)O[C@H]1C[C@H]3[C@@H]4CC=C5C[C@@H](O[C@@H]6O[C@H](CO)[C@@H](O[C@@H]7O[C@@H](CO)[C@H](O)[C@H]7O)[C@H](O)[C@H]6O[C@@H]6O[C@@H](C)[C@H](O)[C@@H](O)[C@H]6O)CC[C@]5(C)[C@H]4CC[C@]3(C)[C@H]1[C@@H]2C ?
output: 0

input: How about this compound: CCNCCNc1cc(-c2ccc(F)cc2)c(C#N)c2nc3ccccc3n12
output: 0

input: Proceed to CCS/C(Nc1ccccc1)=C(\C#N)C(=O)Nc1ccc(OC)cc1
output: 0
